Kindly supply the reported MIC values for the records listed here.
- Test system: resistant P. acnes (NDDR I and II) isolates
- protocol-text: MIC, agar dilution (NCCLS M11-A5), anaerobic
- Type: cell-based, Propionibacterium acnes
- test-conditions: Cutibacterium acnes

Query: Return MIC for the following molecule: `CC[C@H]1OC(=O)[C@H](C)[C@@H](O[C@H]2C[C@@](C)(OC)[C@@H](O)[C@H](C)O2)[C@H](C)[C@@H](O[C@@H]2O[C@H](C)C[C@H](N(C)C)[C@H]2O)[C@](C)(OC)C[C@@H](C)C(=O)[C@H](C)[C@@H](O)[C@]1(C)O`
Result: > 16 µg/mL

Query: Return MIC for the following molecule: `CC[C@H]1OC(=O)[C@H](C)[C@@H](O[C@H]2C[C@@](C)(OC)[C@@H](O)[C@H](C)O2)[C@H](C)[C@@H](O[C@@H]2O[C@H](C)C[C@H](N(C)C)[C@H]2O)[C@](C)(O)C[C@@H](C)CN(C)[C@H](C)[C@@H](O)[C@]1(C)O`
Result: > 16 µg/mL

Query: Return MIC for the following molecule: `CCC[C@@H]1C[C@@H](C(=O)N[C@@H]([C@H]2O[C@H](SC)[C@H](O)[C@@H](O)[C@H]2O)[C@H](C)Cl)N(C)C1`
Result: 16 µg/mL

Query: Return MIC for the following molecule: `CC[C@H]1OC(=O)[C@H](C)[C@@H](O[C@H]2C[C@@](C)(OC)[C@@H](O)[C@H](C)O2)[C@H](C)[C@@H](O[C@@H]2O[C@H](C)C[C@H](N(C)C)[C@H]2O)[C@](C)(O)C[C@@H](C)C(=O)[C@H](C)[C@@H](O)[C@]1(C)O`
Result: > 16 µg/mL

Query: Return MIC for the following molecule: `CC[C@H]1OC(=O)[C@H](C)C(=O)[C@H](C)[C@@H](O[C@@H]2O[C@H](C)C[C@H](N(C)C)[C@H]2O)[C@](C)(OC)C[C@@H](C)C(=O)[C@H](C)[C@H]2N(CCCCn3cnc(-c4cccnc4)c3)C(=O)O[C@]12C`
Result: 2 µg/mL
